# SUBJECT OF TEST: UniProt P30561
# Sequence (P30561 whole entry): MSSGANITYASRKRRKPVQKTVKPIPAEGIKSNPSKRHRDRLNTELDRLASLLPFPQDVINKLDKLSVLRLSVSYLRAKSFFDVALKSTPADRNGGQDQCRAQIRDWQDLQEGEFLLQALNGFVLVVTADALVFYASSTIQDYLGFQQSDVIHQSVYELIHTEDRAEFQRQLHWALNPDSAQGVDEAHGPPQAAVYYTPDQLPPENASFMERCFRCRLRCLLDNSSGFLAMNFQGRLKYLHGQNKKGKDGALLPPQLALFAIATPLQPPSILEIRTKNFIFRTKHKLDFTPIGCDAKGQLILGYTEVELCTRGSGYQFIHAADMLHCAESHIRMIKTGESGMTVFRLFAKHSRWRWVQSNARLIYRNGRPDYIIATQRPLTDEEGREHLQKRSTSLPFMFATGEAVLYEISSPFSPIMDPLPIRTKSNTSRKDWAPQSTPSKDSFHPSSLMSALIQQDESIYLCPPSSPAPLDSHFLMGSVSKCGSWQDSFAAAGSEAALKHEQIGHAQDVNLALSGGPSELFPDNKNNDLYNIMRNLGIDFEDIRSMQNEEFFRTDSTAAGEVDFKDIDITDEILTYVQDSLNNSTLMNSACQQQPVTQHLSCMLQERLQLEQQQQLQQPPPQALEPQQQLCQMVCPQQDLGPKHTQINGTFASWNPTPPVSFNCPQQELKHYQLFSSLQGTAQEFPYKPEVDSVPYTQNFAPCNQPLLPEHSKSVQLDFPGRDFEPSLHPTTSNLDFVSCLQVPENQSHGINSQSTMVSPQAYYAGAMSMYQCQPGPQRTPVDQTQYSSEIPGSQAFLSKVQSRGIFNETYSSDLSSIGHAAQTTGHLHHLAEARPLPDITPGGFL
# ASSAY PROCEDURE: Agonist activity at AHR in FVB/N mouse primary mammary epithelial cells assessed as upregulation of desmoglein-3 protein level at 10 uM after 144 hrs by Western blot analysis in presence of FGF2
# Assay type: cell-based
# SETTINGS: epithelial cell

SUBSTANCE SMILES: Clc1ccc(-c2nc(-c3ccccc3)no2)c(Cl)c1
Activity: Active
//
SUBSTANCE SMILES: O=[N+]([O-])c1cc(F)ccc1-c1nc(-c2ccccc2)no1
Activity: Active
//
SUBSTANCE SMILES: FC(F)(F)c1cccc(-c2noc(-c3ccc(Cl)cc3Cl)n2)c1
Activity: Not Active
//
SUBSTANCE SMILES: Nc1cc(Cl)ccc1-c1nc(-c2ccccc2)no1
Activity: Active
//
SUBSTANCE SMILES: Clc1ccc(-c2nc(-c3ccccc3)no2)c(Cl)c1Cl
Activity: Not Active
//
SUBSTANCE SMILES: Nc1cc(C(F)(F)F)ccc1-c1nc(-c2ccccc2)no1
Activity: Active
